system: Monochoria vaginalis; assay: Test Method 1: soil application in paddy fields, herbicidal efficacy; format: in vivo; details: 1 kg ai/ha, wettable powder applied to paddy water, assessed 28 days after application; also: ranges in brackets are in %
Listed here are compounds together with their documented Herbicidal efficacy (Point) MOOVA.

- compound: "COC=C(Oc1ccc(Cl)cc1COC(C)=O)C(=O)OC"
  systemName: "Monochoria vaginalis"
  Herbicidal efficacy (Point) MOOVA: "10 (90-100)"
- compound: "COC=C(Oc1ccc(Cl)cc1CBr)C(=O)OC"
  systemName: "Monochoria vaginalis"
  Herbicidal efficacy (Point) MOOVA: "10 (90-100)"
- compound: "COC=C(Oc1ccc(Cl)cc1COc1ccccc1C)C(=O)OC"
  systemName: "Monochoria vaginalis"
  Herbicidal efficacy (Point) MOOVA: "10 (90-100)"
- compound: "CCC(=NOCc1ccccc1)OCc1cc(Cl)ccc1OC(=COC)C(=O)OC [Compound 5.541 E isomer]"
  systemName: "Monochoria vaginalis"
  Herbicidal efficacy (Point) MOOVA: "10 (90-100)"
